Items are presented alongside their recorded In vitro EC50, BHK cell reporter gene assay (STAT3-induced luciferase).
Molecular target: T1, human IL-22 receptor (human IL-22Ra and human IL-10Rb) on cells (human, UniProt Q8N6P7 16-574; Q08334 20-325)
T1 sequence (looked up) 1: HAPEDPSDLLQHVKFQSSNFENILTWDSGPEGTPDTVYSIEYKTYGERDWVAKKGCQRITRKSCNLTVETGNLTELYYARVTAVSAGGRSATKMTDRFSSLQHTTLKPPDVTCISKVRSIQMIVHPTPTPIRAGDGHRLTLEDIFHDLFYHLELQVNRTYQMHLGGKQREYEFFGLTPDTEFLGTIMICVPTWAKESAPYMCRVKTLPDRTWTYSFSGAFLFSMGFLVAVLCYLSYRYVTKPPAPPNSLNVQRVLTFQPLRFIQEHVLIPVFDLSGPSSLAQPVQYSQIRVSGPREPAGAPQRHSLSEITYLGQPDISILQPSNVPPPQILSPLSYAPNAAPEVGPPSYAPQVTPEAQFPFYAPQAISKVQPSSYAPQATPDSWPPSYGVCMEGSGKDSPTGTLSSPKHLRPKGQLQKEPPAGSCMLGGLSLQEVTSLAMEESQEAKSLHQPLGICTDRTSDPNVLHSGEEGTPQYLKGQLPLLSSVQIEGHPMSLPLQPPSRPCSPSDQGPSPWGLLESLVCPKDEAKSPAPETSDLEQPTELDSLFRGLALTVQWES
T1 sequence (looked up) 2: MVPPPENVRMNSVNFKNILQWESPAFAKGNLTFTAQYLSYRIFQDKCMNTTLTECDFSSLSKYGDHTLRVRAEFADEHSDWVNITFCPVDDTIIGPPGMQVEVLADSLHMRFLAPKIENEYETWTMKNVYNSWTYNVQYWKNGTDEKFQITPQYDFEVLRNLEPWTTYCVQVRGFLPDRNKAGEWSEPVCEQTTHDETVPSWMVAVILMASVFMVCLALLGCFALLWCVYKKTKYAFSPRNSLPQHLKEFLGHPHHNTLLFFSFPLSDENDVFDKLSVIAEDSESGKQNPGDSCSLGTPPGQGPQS
Assay: cell-based or functional assay
reportedMetric: In vitro EC50, BHK cell reporter gene assay (STAT3-induced luciferase) (nM)

INSERT INTO assay_data (binder, observedmeasurement) VALUES
  ('Comparator 6 (ligand, C16 diacid attached through linker γGlu-OEG-OEG-C2DA-Ac to Cys 1C) GPGCPISSHCRLDKSNFQQPYITNRTFMLAKEASLADNNTDVRLIGEKLFHGVSMSERCYLMKQVLNFTLEEVLFPQSDRFQPYMQEVVPFLARLSNRLSTCHIEGDDLHIQRNVQKLKDTVKKLGESGEIKAIGELDLLFMSLRNACI', 0.3),
  ('Derivative 1 (ligand, C16 monoacid attached through linker γGlu-OEG-OEG-εLys-αAc to Cys 1C (position 1 of hIL-22; position 4 in the sequence listing entry)) GPGCPISSHCRLDKSNFQQPYITNRTFMLAKEASLADNNTDVRLIGEKLFHGVSMSERCYLMKQVLNFTLEEVLFPQSDRFQPYMQEVVPFLARLSNRLSTCHIEGDDLHIQRNVQKLKDTVKKLGESGEIKAIGELDLLFMSLRNACI', 0.06),
  ('Comparator 14 (ligand) GPISSHCRLDKSNFQQPYITNRTFMLAKEASLADNNTDVRLIGEKLFHGVSMSERCYLMKQVLNFTLEEVLFPQSDRFQPYMQEVVPFLARLSNRLSTCHIEGDDLHIQRNVQKLKDTVKKLGESGEIKAIGELDLLFMSLRNACI', 0.06),
  ('Comparator 4 (ligand, C18 diacid attached through linker γGlu-OEG-OEG-C2DA-Ac to Cys 1C) GPGCPISSHCRLDKSNFQQPYITNRTFMLAKEASLADNNTDVRLIGEKLFHGVSMSERCYLMKQVLNFTLEEVLFPQSDRFQPYMQEVVPFLARLSNRLSTCHIEGDDLHIQRNVQKLKDTVKKLGESGEIKAIGELDLLFMSLRNACI', 0.48);
